Numbers sourced from ChEMBL document CHEMBL2169869.

system tested: Diacylglycerol lipase-alpha (Homo sapiens) (UniProt Q9Y4D2)
Sequence (Q9Y4D2 whole entry): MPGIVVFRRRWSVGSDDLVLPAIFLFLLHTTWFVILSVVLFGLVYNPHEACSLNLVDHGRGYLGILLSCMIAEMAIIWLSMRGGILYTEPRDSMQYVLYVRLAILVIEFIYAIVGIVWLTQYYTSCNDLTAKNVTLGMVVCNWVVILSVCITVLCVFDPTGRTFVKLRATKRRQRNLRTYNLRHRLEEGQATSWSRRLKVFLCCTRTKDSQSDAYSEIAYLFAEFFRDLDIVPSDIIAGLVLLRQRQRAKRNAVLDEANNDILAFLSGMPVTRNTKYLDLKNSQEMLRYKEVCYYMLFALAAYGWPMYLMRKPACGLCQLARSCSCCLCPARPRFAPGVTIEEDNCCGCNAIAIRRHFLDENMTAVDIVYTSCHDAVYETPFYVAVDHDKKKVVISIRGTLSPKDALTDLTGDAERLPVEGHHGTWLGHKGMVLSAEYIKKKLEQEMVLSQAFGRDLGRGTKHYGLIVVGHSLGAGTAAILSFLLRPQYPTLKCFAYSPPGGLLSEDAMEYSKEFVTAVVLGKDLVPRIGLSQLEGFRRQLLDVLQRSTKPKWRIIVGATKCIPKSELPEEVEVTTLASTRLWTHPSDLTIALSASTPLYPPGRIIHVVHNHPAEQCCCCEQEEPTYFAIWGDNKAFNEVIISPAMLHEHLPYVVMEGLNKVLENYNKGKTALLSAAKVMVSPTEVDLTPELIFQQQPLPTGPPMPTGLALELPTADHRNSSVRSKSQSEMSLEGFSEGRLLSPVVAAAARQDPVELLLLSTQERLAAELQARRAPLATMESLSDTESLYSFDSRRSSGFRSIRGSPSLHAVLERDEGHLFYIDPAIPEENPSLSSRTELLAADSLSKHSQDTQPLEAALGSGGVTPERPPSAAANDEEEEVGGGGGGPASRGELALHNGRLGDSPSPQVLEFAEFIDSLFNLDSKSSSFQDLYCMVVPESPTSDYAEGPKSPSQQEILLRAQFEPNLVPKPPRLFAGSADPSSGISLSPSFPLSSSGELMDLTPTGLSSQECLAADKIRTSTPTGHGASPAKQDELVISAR
protocol description: Inhibition of human DAGLalpha expressed in HEK293T cell membrane using [14C]SAG substrate at 10 uM in detergent free solution by scintillation counting based radio-TLC assay
stated conditions: HEK-293T
The source made the active and inactive calls. The rule behind the calls is not given here.
quantity name: inhibition

Recorded inhibition, per entry:
smiles str | inhibition
O=C(Oc1ccc([N+](=O)[O-])cc1)N1CCC(C(O)(c2ccc3c(c2)OCO3)c2ccc3c(c2)OCO3)CC1 | inactive
O=C(N[C@H]1COC1=O)OCc1ccccc1 | inactive
O=C(NCCCCCCNC(=O)ON=C1CCCCC1)ON=C1CCCCC1 | 30%
NC(=O)c1cccc(-c2cccc(OC(=O)NC3CCCCC3)c2)c1 | inactive
O=C(Oc1ccc([N+](=O)[O-])cc1)N1CCN(Cc2cccc(Oc3ccccc3)c2)CC1 | inactive

Could you now consider this next compound?
Enquiry: Which measured inhibition value corresponds to `CCCCCCCCCCC[C@@H](C[C@@H]1OC(=O)[C@H]1CCCCCC)OC(=O)[C@H](CC(C)C)NC=O` ?
Return: 100%

###

Test system: Bacteria
protocol description: Inhibition of bacterial lipoprotein lipase at 10 uM by FRET assay
quantity name: inhibition (%)
Respond numerically; units are % and should not be typed.

molecule | inhibition (%)
CCCCCCCCCCC[C@@H](C[C@@H]1OC(=O)[C@H]1CCCCCC)OC(=O)[C@H](NC=O)[C@@H](C)CC | 68
CCCCCCCCCCC[C@@H](C[C@@H]1OC(=O)[C@H]1CCCCCC)OC(=O)[C@H](NC=O)[C@H](C)CC | 86
CCCCCCCCCCC[C@@H](C[C@@H]1OC(=O)[C@H]1CCCCCC)OC(=O)[C@H](CC)NC=O | 80

Enquiry: # inhibition lookup, item `O=C(Oc1ccc([N+](=O)[O-])cc1)N1CCC(C(O)(c2ccc3c(c2)OCO3)c2ccc3c(c2)OCO3)CC1`
Return: 36

Enquiry: Request the reported inhibition associated with CCCCCCC[C@@H]1OC(=O)[C@H]1CCCCCC (racemic)
Return: 67

###

system tested: Monoglyceride lipase (Homo sapiens) (UniProt Q99685)
Sequence (Q99685 whole entry): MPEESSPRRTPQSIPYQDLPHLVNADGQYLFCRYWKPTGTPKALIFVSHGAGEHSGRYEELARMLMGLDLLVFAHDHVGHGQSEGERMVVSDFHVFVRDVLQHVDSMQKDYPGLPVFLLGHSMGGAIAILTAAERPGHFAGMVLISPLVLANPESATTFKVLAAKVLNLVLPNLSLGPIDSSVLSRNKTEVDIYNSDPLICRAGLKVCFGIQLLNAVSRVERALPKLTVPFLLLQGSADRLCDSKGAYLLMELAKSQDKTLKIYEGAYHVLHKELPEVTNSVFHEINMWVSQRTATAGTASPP
protocol description: Inhibition of human N-terminal histidine tagged full length MAGL expressed in Escherichia coli at 10 uM by coumarin ester substrate fluorescence assay
Activity calls are given as the source filed them. The calls are words filed in the database; no cut-off is given here.
quantity name: inhibition

molecule | inhibition
CCCCCCCC(=O)OCC(COC)OC(=O)CCCCCCC (racemic) | inactive
O=C(Oc1ccc([N+](=O)[O-])cc1)N1CCC(C(O)(c2ccc3c(c2)OCO3)c2ccc3c(c2)OCO3)CC1 | 100%
CCCCCCCC(=O)NCC(COC)OC(=O)CCCCCCC (racemic) | inactive
COCC(COC(=O)CCCc1ccc(-c2ccccc2)cc1)OC(=O)CCCc1ccc(-c2ccccc2)cc1 (racemic) | inactive
CCCCCCC[C@@H]1OC(=O)[C@H]1CCCCCC (racemic) | 55%
CCCCCCCCNC(=O)OCC(OC)O[Si](c1ccccc1)(c1ccccc1)C(C)(C)C (racemic) | inactive
CCCCCCCCCCC[C@@H](C[C@@H]1OC(=O)[C@H]1CCCCCC)OC(=O)[C@@H](NC=O)[C@@H](C)CC | 16%

With those in mind, consider the next molecule.
Enquiry: // fetch Monoglyceride lipase (Homo sapiens) (UniProt Q99685) inhibition for CCCCCCCCNC(=O)OCC(COC)OC(=O)CCCCCCC (racemic)
Return: inactive

###

system tested: Fatty-acid amide hydrolase 1 (Rattus norvegicus)
protocol description: Inhibition of rat histidine tagged FAAH expressed in Escherichia coli at 10 uM by coumarin ester substrate fluorescence assay
The source made the active and inactive calls. No cut-off for these calls is given here.
quantity name: inhibition

Below, 8 compounds whose answers are already recorded.
compound | quantity name | reading
O=C(NCCCCCCNC(=O)ON=C1CCCCC1)ON=C1CCCCC1 | inhibition | 95%
CCCCCCC[C@H]1OC(=O)[C@H]1CCCCCC (racemic) | inhibition | 94%
CCCCCCCCNC(=O)OCC(COC)OC(=O)CCCCCCC (racemic) | inhibition | inactive
CCCCCCCC/C=C\CCCCCCCC(=O)OC(COC)COC(=O)NCCCCCCCC (racemic) | inhibition | inactive
O=C(Oc1ccc([N+](=O)[O-])cc1)N1CCC(C(O)(c2ccc3c(c2)OCO3)c2ccc3c(c2)OCO3)CC1 | inhibition | 97%
COCC(CNC(=O)CCCc1ccc(-c2ccccc2)cc1)OC(=O)CCCc1ccc(-c2ccccc2)cc1 (racemic) | inhibition | inactive
CCCCCCCCCCC[C@@H](C[C@@H]1OC(=O)[C@H]1CCCCCC)OC(=O)[C@H](CC(C)C)NC=O [ORLISTAT] | inhibition | 6%
CCCCCCCC/C=C\CCCCCCCC(=O)OC(CNC(=O)ON=C1CCCCC1)COC (racemic) | inhibition | inactive

Enquiry: I have this compound here, CCCCCCCC/C=C\CCCCCCCC(=O)OC(CNC(=O)CCCCCCC)COC (racemic) , and I need its recorded inhibition.
Return: inactive

Enquiry: Which inhibition is listed for CCCCCCCCCCCCCC1CC(=O)O1 (racemic) ?
Return: 10%

Enquiry: Given the compound CCCCCCCC(=O)OCC(COC)OC(=O)CCCCCCC (racemic) , what is its reported inhibition?
Return: inactive

Enquiry: // lookup inhibition for COCC(O)CNC(=O)ON=C1CCCCC1 (racemic)
Return: inactive

Enquiry: Quick one: inhibition of `CCCCCCCCCCC[C@@H](C[C@@H]1OC(=O)[C@H]1CCCCCC)OC(=O)[C@@H](NC=O)[C@H](C)CC` ?
Return: 3%

###

System: Bacteria
protocol description: Inhibition of bacterial lipoprotein lipase at 10 uM by FRET assay
quantity name: inhibition

For orientation, consider the following solved cases.
compound | system tested | quantity name | reading
O=C(NCCCCCCNC(=O)ON=C1CCCCC1)ON=C1CCCCC1 | Bacteria | inhibition | < 0%
O=C(N[C@H]1COC1=O)OCc1ccccc1 | Bacteria | inhibition | < 0%
O=C(Oc1ccc([N+](=O)[O-])cc1)N1CCN(Cc2cccc(Oc3ccccc3)c2)CC1 | Bacteria | inhibition | < 0%

Now for another entry.
Enquiry: Could you tell me which inhibition is on file for O=S(=O)(F)Cc1ccccc1 [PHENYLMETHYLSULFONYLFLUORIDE] ?
Return: < 0%
